The measurements presented in this section are drawn from patent US20250136586A1.

target: CDK6/Cyclin D3 (Homo sapiens (Human)); test: TR-FRET kinase inhibition assay, CDK6/Cyclin D3; details: 1 mM ATP, 0.15 μM Rb (Ser780)-biotin substrate, read-out: CDK6D3 IC50
reported_endpoint: pIC50
Quick note: pIC50 means taking -log10 of the concentration in moles per liter.

Examples with answers:
CC(C)n1c(C(=O)NCCC#N)cc(=O)c2ccc(-c3nc(N[C@@H]4CCOC[C@H]4O)ncc3Cl)cc21 ... 6.41
Cc1cn(C(C)C)c2cc(-c3nc(N[C@@H]4CCOC[C@H]4O)ncc3F)ccc2c1=O ... 5.91
CC(C)n1c(CN2CC[C@@H](F)[C@H](O)C2)cc(=O)c2ccc(-c3nc(N[C@@H]4CCOC[C@H]4O)ncc3F)cc21 ... 6.77
Cc1c(CN2CCCC(F)(F)C2)n(C(C)C)c2cc(-c3nc(N[C@@H]4CCOC[C@H]4O)ncc3F)ccc2c1=O ... 6.76
Cc1c(CN2CCC(F)(F)CC2)n(C(C)C)c2cc(-c3nc(N[C@@H]4CCOC[C@H]4O)ncc3F)ccc2c1=O ... 6.95
CC(C)n1c(CN2[C@@H](C)COC[C@@H]2C)cc(=O)c2ccc(-c3nc(N[C@@H]4CCOC[C@H]4O)ncc3F)cc21 ... 6.53

Prompt: State the recorded pIC50 for this entry: "Cc1c(CN2[C@@H](C)COC[C@@H]2C)n(C(C)C)c2cc(-c3nc(N[C@@H]4CCOC[C@H]4O)ncc3F)ccc2c1=O"
Completion: 7.29

###

target: CDK6/Cyclin D3 (Homo sapiens (Human)); experiment: TR-FRET kinase inhibition assay, CDK6/Cyclin D3; conditions: 1 mM ATP, 0.15 μM Rb (Ser780)-biotin substrate, read-out: CDK6D3 IC50
Recorded measurements of pIC50, one per entry
Give only the number. pIC50 is defined as minus log10 of concentration in molar units.

Example cases with answers are listed next.
Cc1c(CN[C@H]2C[C@H](F)C2)n(C(C)C)c2cc(-c3nc(N[C@@H]4CCOC[C@H]4O)ncc3F)ccc2c1=O ... 6.45
CC(C)n1c(CN2CCC3(CCCO3)CC2)cc(=O)c2ccc(-c3nc(N[C@@H]4CCOC[C@H]4O)ncc3F)cc21 ... 5.89

Prompt: Please give the measured pIC50 for this compound: "CC(C)n1c(CN[C@@H]2CCCOC2)cc(=O)c2ccc(-c3nc(N[C@@H]4CCOC[C@H]4O)ncc3F)cc21"
Completion: 6.17

Prompt: Which pIC50 is listed for "CC(C)n1c(CN2CC[C@H](F)[C@@H](O)C2)cc(=O)c2ccc(-c3nc(N[C@@H]4CCOC[C@H]4O)ncc3F)cc21" ?
Completion: 6.31

Prompt: What value of pIC50 has been reported for the following compound? "CC(C)n1c(CN2CCC(F)(F)C2)cc(=O)c2ccc(-c3nc(N[C@@H]4CCOC[C@H]4O)ncc3F)cc21"
Completion: 6.21

Prompt: Could you share which pIC50 value was measured for "CCc1cc(=O)c2ccc(-c3nc(N[C@@H]4CCOC[C@H]4O)ncc3F)cc2n1C(C)C" ?
Completion: 6.46

Prompt: Dear colleague, I am looking for the recorded pIC50 of the following compound: "Cc1c(C)n(C(C)C)c2cc(-c3nc(N[C@@H]4CCOC[C@H]4O)ncc3F)ccc2c1=O"
Completion: 6.59

Prompt: Please give the measured pIC50 for this compound: "CC(C)n1c(CNC2CC(F)(F)C2)cc(=O)c2ccc(-c3nc(N[C@@H]4CCOC[C@H]4O)ncc3F)cc21"
Completion: 6.22

Prompt: Given "CC(C)n1c(CN2CCC[C@@]3(CCNC3=O)C2)cc(=O)c2ccc(-c3nc(N[C@@H]4CCOC[C@H]4O)ncc3F)cc21" , state its recorded pIC50.
Completion: 6.86

Prompt: Field request: pIC50 | item: CC(C)n1c(CN2C3CCC2COC3)cc(=O)c2ccc(-c3nc(N[C@@H]4CCOC[C@H]4O)ncc3F)cc21 [Example 29]
Completion: 6.44

Prompt: // lookup pIC50 for "Cc1c(CN2CCC(O)CC2)n(C(C)C)c2cc(-c3nc(N[C@@H]4CCOC[C@H]4O)ncc3F)ccc2c1=O"
Completion: 6.57

Prompt: Look up pIC50 for this compound: "Cc1c(CO)n(C(C)C)c2cc(-c3nc(N[C@@H]4CCOC[C@H]4O)ncc3F)ccc2c1=O"
Completion: 6.56

Prompt: Can you look up the measured pIC50 of "Cc1c(CN2CCOCC2)n(C(C)C)c2cc(-c3nc(N[C@@H]4CCOC[C@H]4O)ncc3F)ccc2c1=O" for me?
Completion: 7.11

Prompt: Give the measured pIC50 of "Cc1c(CN2CCC[C@@H](O)C2)n(C(C)C)c2cc(-c3nc(N[C@@H]4CCOC[C@H]4O)ncc3F)ccc2c1=O" .
Completion: 7.16

###

target: CDK4/Cyclin D1 (Homo sapiens (Human), UniProt P11802); test: TR-FRET kinase inhibition assay, CDK4/Cyclin D1; conditions: 1 mM ATP, 0.15 μM Rb (Ser780)-biotin substrate, read-out: CDK4D1 IC50
Sequence (P11802 whole entry): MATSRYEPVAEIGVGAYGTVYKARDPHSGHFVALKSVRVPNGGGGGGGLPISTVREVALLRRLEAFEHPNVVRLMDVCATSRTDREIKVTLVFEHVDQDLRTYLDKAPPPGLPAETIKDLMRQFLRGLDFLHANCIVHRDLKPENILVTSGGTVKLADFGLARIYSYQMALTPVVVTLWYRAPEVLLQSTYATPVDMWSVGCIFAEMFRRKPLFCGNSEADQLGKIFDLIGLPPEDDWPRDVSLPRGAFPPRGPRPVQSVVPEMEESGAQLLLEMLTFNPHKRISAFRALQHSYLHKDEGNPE
Sequence (P24385 whole entry partner): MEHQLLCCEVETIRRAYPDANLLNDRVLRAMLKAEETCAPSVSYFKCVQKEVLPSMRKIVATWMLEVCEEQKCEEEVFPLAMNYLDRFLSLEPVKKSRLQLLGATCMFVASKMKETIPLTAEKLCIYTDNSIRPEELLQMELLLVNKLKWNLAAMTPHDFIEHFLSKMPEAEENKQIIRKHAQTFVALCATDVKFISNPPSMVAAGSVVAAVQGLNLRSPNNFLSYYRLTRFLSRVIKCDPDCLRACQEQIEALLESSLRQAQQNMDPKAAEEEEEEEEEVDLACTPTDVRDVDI
reported_endpoint: log10(IC50) (log10 of the value in nM)
A value of 2 here means IC50 of 100 in nM, since values are log10.

# example entries with known answers
CC(C)n1c(CN2CC[C@@H](F)C2)cc(=O)c2cc(F)c(-c3nc(N[C@@H]4CCOC[C@H]4O)ncc3F)cc21 [Example 114] ... 1.60
CC(C)n1c(CNC(C)(C)C)cc(=O)c2ccc(-c3nc(N[C@@H]4CCOC[C@H]4O)ncc3F)cc21 [Example 75] ... 1.32
CC(C)n1c(CN2CCCOCC2)cc(=O)c2ccc(-c3nc(N[C@@H]4CCOC[C@H]4O)ncc3F)cc21 [Example 79] ... 1.53
Cc1c(C2CCN2C)n(C(C)C)c2cc(-c3nc(N[C@@H]4CCOC[C@H]4O)ncc3F)ccc2c1=O (stereo partly shown) [Example 387] ... 0.71

Prompt: Record request: log10(IC50) value, item CNC(=O)c1c(Cl)c(=O)c2ccc(-c3nc(N[C@@H]4CCOC[C@H]4O)ncc3F)cc2n1C(C)C [Example 23]
Completion: 1.72

Prompt: Value lookup for log10(IC50); key = CC(C)n1c(CN[C@@H]2CCCOC2)cc(=O)c2ccc(-c3nc(N[C@@H]4CCOC[C@H]4O)ncc3F)cc21 [Example 59]
Completion: 1.43

Prompt: Sample CC(C)n1c(CN[C@H]2CCOC2)cc(=O)c2ccc(-c3nc(N[C@@H]4CCOC[C@H]4O)ncc3F)cc21 [Example 67] — what was its log10(IC50)?
Completion: 1.32

###

biological target: CDK6/Cyclin D3 (Homo sapiens (Human), UniProt Q00534); experiment: TR-FRET kinase inhibition assay, CDK6/Cyclin D3; settings: 1 mM ATP, 0.15 μM Rb (Ser780)-biotin substrate, read-out: CDK6D3 IC50
Sequence (Q00534 whole entry): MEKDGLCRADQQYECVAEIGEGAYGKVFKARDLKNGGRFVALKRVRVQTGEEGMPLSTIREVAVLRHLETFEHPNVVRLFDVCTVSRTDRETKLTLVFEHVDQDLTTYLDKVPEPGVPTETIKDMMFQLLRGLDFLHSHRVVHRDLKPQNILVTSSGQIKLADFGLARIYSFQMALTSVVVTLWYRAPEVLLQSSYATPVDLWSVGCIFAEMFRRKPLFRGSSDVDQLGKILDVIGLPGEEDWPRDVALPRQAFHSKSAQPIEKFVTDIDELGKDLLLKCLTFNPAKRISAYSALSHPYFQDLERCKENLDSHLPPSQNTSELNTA
Sequence (P30281 whole entry partner): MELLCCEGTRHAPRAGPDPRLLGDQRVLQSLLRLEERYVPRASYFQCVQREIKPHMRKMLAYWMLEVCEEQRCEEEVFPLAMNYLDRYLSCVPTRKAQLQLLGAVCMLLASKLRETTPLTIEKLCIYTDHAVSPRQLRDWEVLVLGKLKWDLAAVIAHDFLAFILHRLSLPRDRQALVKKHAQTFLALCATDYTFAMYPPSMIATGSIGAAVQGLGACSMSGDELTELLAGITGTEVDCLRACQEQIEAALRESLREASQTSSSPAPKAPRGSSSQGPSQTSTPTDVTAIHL
Attribute: pIC50
Formally, pIC50 is defined as -log10 of the concentration c, with c in mol/L.

CC(C)n1c(CNC2CCC2)cc(=O)c2ccc(-c3nc(N[C@@H]4CCOC[C@H]4O)ncc3F)cc21 ... 6.23
Cc1c(C2CCN2)n(C(C)C)c2cc(-c3nc(N[C@@H]4CCOC[C@H]4O)ncc3F)ccc2c1=O (stereo partly drawn) ... 6.43
Cc1c(CN2CC[C@@H](F)C2)n(C(C)C)c2cc(-c3nc(N[C@@H]4CCOC[C@H]4O)ncc3F)ccc2c1=O ... 6.88
Cc1c(CNC(C)C)n(C(C)C)c2cc(-c3nc(N[C@@H]4CCOC[C@H]4O)ncc3F)ccc2c1=O ... 6.25
CNC(=O)c1cc(=O)c2c(Cl)cc(-c3nc(N[C@@H]4CCOC[C@H]4O)ncc3F)cc2n1C(C)C ... 6.26

Prompt: What value of pIC50 has been reported for the following compound? "CC(C)n1c(CN2[C@H](C)COC[C@@H]2C)cc(=O)c2ccc(-c3nc(N[C@@H]4CCOC[C@H]4O)ncc3F)cc21"
Completion: 6.47

Prompt: Recorded pIC50 of "CC(C)n1c(CN2CCC(C)(C)C2)cc(=O)c2ccc(-c3nc(N[C@@H]4CCOC[C@H]4O)ncc3F)cc21" , please.
Completion: 6.19

Prompt: Name the reported pIC50 value associated with the compound "Cc1c(CN2CCC(C)(O)CC2)n(C(C)C)c2cc(-c3nc(N[C@@H]4CCOC[C@H]4O)ncc3F)ccc2c1=O"
Completion: 6.29

Prompt: // pIC50 lookup, key: "CC(C)n1c(CN2C[C@@H]3C[C@H]2CO3)cc(=O)c2ccc(-c3nc(N[C@@H]4CCOC[C@H]4O)ncc3F)cc21"
Completion: 6.37

Prompt: Record request: pIC50 value, item "CC(C)n1c(CN2CCC(F)CC2)cc(=O)c2ccc(-c3nc(N[C@@H]4CCOC[C@H]4O)ncc3F)cc21"
Completion: 6.25

Prompt: Find the recorded pIC50 belonging to "CC(C)n1c(CN2C[C@@H](O)[C@@H](F)C2)cc(=O)c2ccc(-c3nc(N[C@@H]4CCOC[C@H]4O)ncc3F)cc21" and report it.
Completion: 6.32

Prompt: I am curious: what pIC50 value has been reported for "CC(C)n1c(CN2CCOC[C@H]2C)cc(=O)c2ccc(-c3nc(N[C@@H]4CCOC[C@H]4O)ncc3F)cc21" ?
Completion: 6.27
